experiment: NCI Yeast Anticancer Drug Screen. Data for the bub3 strain (AID 167); conditions: S. cerevisiae bub3 mutant strain, at 50.0 µM
This is part of a sample that, as a whole, favours compounds with a hit. Of some 79,000 tested, about 15% had one in any assay. The source made the active and inactive calls. Rule as the data show it: active = growth inhibition above about 70%; inactive = the rest.
Classes used: 1 (active), -1 (inactive)

>>> df
                                    molecule  label
 0                NC(=O)C(F)(F)C(F)(F)C(N)=O     -1
 1  COc1cc2c(cc1C/C=C/c1cc(OC)c(OC)c(OC)c1)OCO2     -1
 2  CN1CCC(C[CH2][Sn]([c]2ccccc2)([c]2ccccc2)[c]2ccccc2)CC1     -1
 3  Cc1ccc(S(=O)(=O)N(C)c2c(N)n(C)c(=O)n(C)c2=O)cc1     -1
 4  CC(=O)NC(Cc1ccc(C)cc1)C(=O)O (centres undefined)     -1
 5  CS(=O)CCNC(=O)NS(=O)(=O)c1ccc(Cl)cc1 (centres undefined)     -1
 6        COc1ccc(CCCCl)c(C2=NCCc3ccccc32)c1     -1
 7  COc1ccc(Nc2nc(NNC(=O)Cc3ccccc3)nc(NNC(=O)c3ccncc3)n2)cc1     -1
 8  O=C(Nc1ccc([N+](=O)[O-])cc1)c1ccc(Cl)cc1     -1
 9  O=C(Cc1nc2ccc([N+](=O)[O-])cc2[nH]c1=O)C(=O)Nc1ccccc1[N+](=O)[O-]     -1
10                     C=C(C)C#CCN(CCO)C(C)C     -1
11  CC1OC(CC(=O)O)CC2=C1C(=O)c1c(O)cccc1C2=O (centres undefined)     -1
12  O=[N+]([O-])c1cc(C2ON=C(c3ccccc3)N2C23CC4CC(CC(C4)C2)C3)ccc1Cl (centres undefined)     -1
13    Cc1ccccc1C(c1ccccc1C)C(CC(=O)O)CC(=O)O     -1
14   C/[N+]([O-])=C/c1ncc([N+](=O)[O-])n1CCO     -1
15           O=C1c2cc(F)ccc2-c2c(F)cc(F)cc21     -1
16              COc1cc(C(=O)O)c(Br)c(OC)c1OC     -1
17                          CCCCCCCCCCCCCC#N     -1
18  CCOc1ccc(NC(=O)/C(CC(=O)c2sc(Nc3ccc(C)cc3)nc2C)=N\NC(N)=S)cc1     -1
19  NC(=O)C1C(=O)NC(=O)C1=O (centres undefined)     -1
20  O=[N+]([O-])c1ccc(Nc2ccc(Cl)cc2)c2nonc12     -1
21  O=C(Nc1ccc(Cl)cc1[N+](=O)[O-])Oc1ccc(-c2ccccc2)cc1Cl      1
22                         NNC(=O)CSCC(=O)NN     -1
23              CCCC(=O)Oc1cc(C)ccc1C(C)(C)C     -1

---

test: NCI Yeast Anticancer Drug Screen. Data for the sgs1 mgt1 strain (AID 161);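 also: 0% = growth of cultures given vehicle only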; conditions: S. cerevisiae sgs1 mgt1 strain, at 50.0 µM
About 79,000 compounds went through this panel and 15% of them were active in at least one assay; those are over-represented in the sample as a whole. The source made the active and inactive calls. Rule as the data show it: active = growth inhibition above about 70%; inactive = the rest.
Outcomes: active, inactive

>>> print(df.to_string())
                                    compound     label
 0  COc1cc2c(c3c1c(=O)c1ccccc1n3C)C=CC(C)(C)O2  inactive
 1  CC1=CC(=O)C(=O)C2=C1OC1(C2)C(C)CCC2C3(C)CCC(O)C(C)(C)C3CCC21C (stereo unspecified)    active
 2    N#Cc1c(N)[n+]([O-])c2c([n+]1[O-])CCCC2  inactive
 3  O=[N+]([O-])c1ccc(P(=O)(Nc2ccc(Cl)cc2)Nc2ccc(Cl)cc2)cc1    active
 4  CC(=O)OC1CCC2(C)C(CCC3C2CC(OC(C)=O)C2(C)C(C(C)CCC(c4ccccc4)c4ccccc4)CCC32)C1 (stereo unspecified)  inactive
 5                      CNC(=O)n1cnc2ccccc21  inactive
 6  Cc1ccc(S(=O)(=O)N=Nc2c(O)[nH]c3c(Cl)cc(Cl)cc23)cc1  inactive
 7  NC(=O)c1ncn(C2OC(CO)C(O)C2O)c1NC=O (stereo unspecified)  inactive
 8  CCC1(C(=O)OC)CCC2C3CCC4CCCCC4(C)C3CCC21C (stereo unspecified)  inactive
 9  CCC1(O)c2ccccc2CCC1C (stereo unspecified)  inactive
10                     CCOc1ncnc2ccc(Cl)cc12  inactive

---

assay: NCI Yeast Anticancer Drug Screen. Data for the bub3 strain (AID 167); conditions: S. cerevisiae bub3 mutant strain, at 50.0 µM, stronger effect = higher value
About 79,000 compounds went through this panel and 15% of them were active in at least one assay; those are over-represented in the sample as a whole.
quantity.kind: growth inhibition (%)

>>> df
                                   compound      quantity_kind  meas_value
0                 CCCCCCc1c(N)nc(N)[nH]c1=O  growth inhibition       -12.9
1  NC(CC(=O)O)C(=O)OCc1cccc(N=Nc2ccccc2)c1 (configuration not stated)  growth inhibition        -2.4
2            CCCNc1cc2c(cc1Br)-c1ccccc1C2=O  growth inhibition        19.1
3                CCCN=C1NS(=O)(=O)c2ccccc21  growth inhibition       -7.55
4  COc1cccc(Nc2nc(NS(=O)(=O)c3cc(C)c(Cl)cc3S)n[nH]2)c1  growth inhibition        16.1
5            CC(=O)/C=C1\N(C)c2ccccc2C1(C)C  growth inhibition        -2.9
6  CC(=O)C1=CCC(C(C)C)C1 (configuration not stated)  growth inhibition        17.1

---

test: NCI Yeast Anticancer Drug Screen. Data for the rad50 strain (AID 155);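 also: 0% = growth of vehicle-only cultures of the same strain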; conditions: S. cerevisiae rad50 strain growth inhibition; at 50.0 µM; stronger effect = higher value
The panel holds about 79,000 compounds, 15% with a hit somewhere; the sample as a whole holds those more often.
Listed next: entries and their corresponding growth inhibition.

compound	growth inhibition [%]
CC1(C)OC(C2SCCS2)C2OC(=O)C(O[Si](C)(C)C(C)(C)C)C2O1 (stereo unspecified)	18.2
CC(=O)N1Cc2cncnc2C1	-0.8
CC(=O)Oc1c(C)cc(C(=O)CO)cc1C	34.7
CC(=O)C(CCN(C)C)(c1ccccc1)C1CCCCC1 (stereo unspecified)	-12.2
CC(CCc1ccccc1)NC1=NCCO1 (stereo unspecified)	-9.6
CS(=O)c1nsc(S(C)=O)c1C#N (stereo unspecified)	1.05
O=C(NC(=S)c1ccco1)NS(=O)(=O)c1ccc(Cl)cc1	8.35
CC1=CCCC(C)(C)C1/C=C/C(C)=N/NC(=O)Nc1ccccc1 (stereo unspecified)	32.2
O=C(OC1C#CCSCC#C/C=C\1)c1cnc2ccccc2n1 (stereo unspecified)	-34
CNc1c(F)cc(C#N)cc1F	12.1
COC(=O)c1cc(=O)n(C)[nH]1	-0.55
CN(C)Cc1c(-c2ccccc2)c(-c2ccccc2)c2ccccn12	-7.15
Cc1nc[nH]c1[N+](=O)[O-]	-6.6
CC(C)CCCC(C)CCCl (stereo unspecified)	3.85
Nc1ccc(N)c(Cl)c1	-19.4
CN1C(=O)N(c2nc3ccccc3[nH]2)C(C)(C)C1=O	5.25
N#Cc1cnn2ccn(C3OC(CO)C(O)C3O)c12 (stereo unspecified)	-42.8
Cc1[nH]c(=S)[nH]c(=O)c1CCC(C)C	9.5
c1ccc(C(Sc2ncnc3nc[nH]c23)c2ccccc2)cc1	15
Nc1nc(-c2ccc(Cl)c(Cl)c2)cc(-c2cc(-c3ccc(Cl)c(Cl)c3)nc(N)n2)n1	24.9
C1CCSCCCCCSCCCCCSCCCCCSCC1	25.2
Cc1cc(C(=O)O)c(C#N)c(=O)n1C	-1.55
O=C(NCc1ccc([N+](=O)[O-])cc1)c1ccccc1	4.15
NC(=O)NCP(=O)(CNC(N)=O)CNC(N)=O	-20
N#Cc1sc2c(c1OC(=O)c1ccccc1)c(=O)n(-c1ccccc1)c(=S)n2-c1ccccc1	-2.65
O=C(Nc1ccc(Cl)cc1[N+](=O)[O-])Oc1ccc(-c2ccccc2)cc1Cl	99.5
Nc1ncnc2c1ncn2C1OC(CSCc2ccc(Cl)cc2)C(O)C1O (stereo unspecified)	26.6
O=C(O)c1cc(-c2ccccc2)nc2cc(Cl)ccc12	29.9
C1COC2(C1)CCCO2	21.6
CC(C)(C)C1COC(c2ccccc2)(c2ccccc2)C1 (stereo unspecified)	-24.6
CCOC(=O)C(Cc1ccc(OC)c(C)c1)(NC(C)=O)C(=O)OCC	-0.3
Cc1cccc(C(C)C)c1NC(=O)/C(Cc1c([N+](=O)[O-])cccc1[N+](=O)[O-])=N/NC(=O)CC#N	-0.15
N#C/C(C(=O)Nc1ccccc1)=C(/N)N1CCCC1	18.4
CC(C)(O)/C=C\P(C)(=O)c1ccccc1 (stereo unspecified)	-30.9
CCCNC(=O)Nc1ccc(OC)cc1Cl	-12.1
O=c1[nH]c2cc(Cl)ccc2nc1/C(=N\O)C(O)c1cccc([N+](=O)[O-])c1 (stereo unspecified)	6.7
O=C(CCBr)OCCC1CCCCC1	-1.95
CCNc1ccc(Cl)cc1[N+](=O)[O-]	-28.8
O=c1[nH]nc(Cc2ccc(Cl)cc2)n1O	3.3
O=C(/C=C/c1ccc(Cl)c(Cl)c1)c1ccc2ccccc2c1	28.2
CCOCCOCCOC(=O)CC(C)=O	3.45
CN1CCCCC(C#N)(c2ccccc2)CC1 (stereo unspecified)	-5.25
CCOC(=O)c1c(C)c2c(n1Cc1ccccc1)CCCC2=O	15.5
CCCOCOCCC	-22.5
CCCCCC/C=C/CCCCCCCC(=O)O	3.15
O=c1ccnc2ccc3n[nH][nH]c3c12	-18.4
CCCCCCCc1ccc(N=Cc2ccc(OCCC)cc2)cc1	98.8
C=C1C(=O)O[C@H]2C1[C@H](OC(=O)/C(C)=C\COC(C)=O)C[C@]1(CO1)[C@@H]1[C@H](O)[C@H]3O[C@@]3(C)[C@@H]12 (stereo partly specified)	-5.95
CC(=O)C1C(=O)C(=O)N(c2ccccc2N2C(=O)C(=O)C(C(C)=O)C2=O)C1=O (stereo unspecified)	18.6
CCSC1=C(C)N(C=NC(C)(C)C)CC1	-3.7
C/C(O)=C(\N=Nc1ccccc1)C(N)=O	-9.45
